- Species on record: Homo sapiens
- test-summary: Selectivity index, ratio of IC50 for human recombinant MAOA to IC50 for human recombinant MAOB
value-type: Ratio IC50

For orientation, consider the following solved cases.
COc1cc(NC(C)CCCN)c2nccc(C)c2c1Oc1ccc(F)cc1 (centres undefined) | 0.29
COc1cc(NC(C)CCCN)c2nccc(C)c2c1Oc1ccc(F)c(F)c1 (centres undefined) | 6.22

(a) COc1cc(NC(C)CCCN)c2nccc(C)c2c1Oc1cccc(F)c1 (centres undefined)
(b) COc1cc(NC(C)CCCN)c2ncccc2c1 (centres undefined)
Enquiry: Select one: a or b . Criterion: greater recorded Ratio IC50. Kindly give the label for the entry you pick.
Return: b

###

- target-desc: Amine oxidase [flavin-containing] A (Homo sapiens)
- Sequence (P21397 whole entry): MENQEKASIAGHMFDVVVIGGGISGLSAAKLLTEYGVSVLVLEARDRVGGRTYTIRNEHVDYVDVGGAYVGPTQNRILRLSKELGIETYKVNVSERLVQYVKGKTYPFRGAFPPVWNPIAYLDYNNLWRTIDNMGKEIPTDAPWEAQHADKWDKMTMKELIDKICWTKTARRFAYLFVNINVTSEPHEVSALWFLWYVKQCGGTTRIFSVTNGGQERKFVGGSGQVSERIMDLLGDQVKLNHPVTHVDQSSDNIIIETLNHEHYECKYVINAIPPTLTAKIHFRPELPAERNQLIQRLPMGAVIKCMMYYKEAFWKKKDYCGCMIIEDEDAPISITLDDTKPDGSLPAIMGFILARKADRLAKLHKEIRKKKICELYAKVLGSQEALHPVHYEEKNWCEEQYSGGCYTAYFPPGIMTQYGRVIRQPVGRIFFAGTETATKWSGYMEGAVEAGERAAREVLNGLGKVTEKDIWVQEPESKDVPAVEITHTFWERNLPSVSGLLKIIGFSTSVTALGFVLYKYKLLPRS
- test-summary: Inhibition of human recombinant MAOA assessed as conversion of kynuramine to 4-hydroxyquinoline preincubated for 15 mins by fluorimetric assay
pIC50: −log10 of the molar value.
value-type: pIC50

(a) COc1cc(NC(C)CCCN)c2nccc(C)c2c1Oc1cccc(F)c1 (stereo not drawn)
(b) COc1cc(NC(C)CCCN)c2nccc(C)c2c1Oc1ccc(F)cc1 (stereo not drawn)
(c) COc1cc(NC(C)CCCN)c2nccc(C)c2c1Oc1ccc(F)c(F)c1 (stereo not drawn)
Enquiry: Descending by pIC50 please, for everything listed above. Answer by writing out the labels in the requested order.
Return: a, b, c
(a: 5.49, b: 5.01, c: 4.64)

###

- target-desc: Amine oxidase [flavin-containing] B (Homo sapiens, UniProt P27338)
- Sequence (P27338 whole entry): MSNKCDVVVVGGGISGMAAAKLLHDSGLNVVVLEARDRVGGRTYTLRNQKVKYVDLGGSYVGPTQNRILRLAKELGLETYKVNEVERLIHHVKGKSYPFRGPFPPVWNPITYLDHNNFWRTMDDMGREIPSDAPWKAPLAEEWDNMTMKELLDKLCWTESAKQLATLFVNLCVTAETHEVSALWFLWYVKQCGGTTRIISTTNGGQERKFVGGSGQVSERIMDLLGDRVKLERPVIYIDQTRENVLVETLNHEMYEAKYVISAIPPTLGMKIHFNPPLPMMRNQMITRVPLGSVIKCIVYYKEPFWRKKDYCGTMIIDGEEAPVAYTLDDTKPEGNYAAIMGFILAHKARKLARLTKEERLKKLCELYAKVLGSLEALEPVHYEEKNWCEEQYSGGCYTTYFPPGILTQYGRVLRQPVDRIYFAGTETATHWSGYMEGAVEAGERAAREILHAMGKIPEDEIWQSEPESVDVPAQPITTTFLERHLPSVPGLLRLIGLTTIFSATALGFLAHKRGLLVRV
- test-summary: Inhibition of human recombinant MAOB assessed as conversion of kynuramine to 4-hydroxyquinoline preincubated for 15 mins by fluorimetric assay
value-type: IC50 (µM)

COc1cc(NC(C)CCCN)c2nccc(C)c2c1Oc1ccc(F)cc1 (centres undefined) | 33.4
COc1cc(NC(C)CCCN)c2ncccc2c1 (centres undefined) [PRIMAQUINE] | 94.5

(P) COc1cc(NC(C)CCCN)c2nccc(C)c2c1Oc1ccc(F)c(F)c1 (centres undefined)
(Q) COc1cc(NC(C)CCCN)c2nccc(C)c2c1Oc1cccc(F)c1 (centres undefined)
Enquiry: // which entry reports the smaller IC50, P or Q ? // return label of chosen record
Return: P
